Biological target: CYP3A4 (Homo sapiens, UniProt P08684)
Sequence (P08684 whole entry): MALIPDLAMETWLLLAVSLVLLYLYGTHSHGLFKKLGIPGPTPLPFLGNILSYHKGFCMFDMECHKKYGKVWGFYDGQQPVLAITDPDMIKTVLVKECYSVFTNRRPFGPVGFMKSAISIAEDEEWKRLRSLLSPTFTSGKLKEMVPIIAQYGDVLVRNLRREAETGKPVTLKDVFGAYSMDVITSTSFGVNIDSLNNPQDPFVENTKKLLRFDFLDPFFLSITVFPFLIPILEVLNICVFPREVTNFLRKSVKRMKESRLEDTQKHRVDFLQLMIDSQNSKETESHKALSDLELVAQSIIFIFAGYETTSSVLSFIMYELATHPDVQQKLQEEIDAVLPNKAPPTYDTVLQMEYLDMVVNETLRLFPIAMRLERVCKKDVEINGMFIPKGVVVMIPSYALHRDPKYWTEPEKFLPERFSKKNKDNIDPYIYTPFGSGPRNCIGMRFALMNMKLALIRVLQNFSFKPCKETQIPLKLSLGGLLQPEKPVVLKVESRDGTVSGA
Assay: Inhibition of CYP3A4 in human liver microsome using testosterone as substrate at 10 uM preincubated for 5 mins followed by NADPH addition and measured after 10 mins by LC-MS/MS analysis relative to control
Type: ADME
Conditions: human liver microsomes, probe testosterone, time 15 min
observationType: inhibition at 10 min, 10 µM
Numeric answer plus unit only.

Query block: Hi! What's the reported inhibition at 10 min, 10 µM for Cn1c(=O)n(C2CCC(=O)NC2=O)c2cccc(C#CCO[C@H]3CC[C@H](CN4CCC5(CC4)Cc4cc(NC(=O)c6coc7cccnc67)c(N6CCC(CO)CC6)cc4O5)CC3)c21 (stereo partly specified) on CYP3A4 (Homo sapiens, UniProt P08684)?
Result block: 10.2%

----------
Assay: Cmax in Beagle dog at 10 mg/kg, po measured up to 24 hrs by LC-MS/MS analysis
Type: ADME, organism-based, Canis lupus familiaris
Conditions: in vivo
observationType: Cmax (ng/mL)
Please give a number only; it is taken to be in ng/mL.

Query block: Quick one: Cmax for Cn1c(=O)n(C2CCC(=O)NC2=O)c2cccc(C#CCO[C@H]3CC[C@H](CN4CCC5(CC4)Cc4cc(NC(=O)c6coc7cccnc67)c(N6CCC(CO)CC6)cc4O5)CC3)c21 (stereo partly specified) ?
Result block: 360

----------
Assay: Volume of distribution at steady state in Sprague-Dawley rat at 2 mg/kg, iv measured up to 24 hrs by LC-MS/MS analysis
Assay type: ADME, organism-based
Conditions: in vivo, read-out: Vdss
Some compounds, each annotated with its measured Vd.
State the value, then name its unit.

Please review the following examples before continuing.
{"compound": "Cn1c(=O)n(C2CCC(=O)NC2=O)c2cccc(C#CCO[C@H]3CC[C@H](CN4CCC5(CC4)Cc4cc(NC(=O)c6cnn7cc(F)cnc67)c(N6CCC(CO)CC6)cc4O5)CC3)c21 (some centres undefined)", "result": "3.12 L/kg"}
{"compound": "Cn1c(=O)n(C2CCC(=O)NC2=O)c2cccc(C#CCO[C@H]3CC[C@H](CN4CCC5(CC4)Cc4cc(NC(=O)c6coc7cccnc67)c(N6CCC(CO)CC6)cc4O5)CC3)c21 (some centres undefined)", "result": "2.66 L/kg"}
{"compound": "Cn1c(=O)n(C2CCC(=O)NC2=O)c2cccc(C#CCO[C@H]3CC[C@H](CN4CCC5(CC4)Cc4cc(NC(=O)c6cnn7cccnc67)c(N6CCC(CO)CC6)cc4O5)CC3)c21 (some centres undefined)", "result": "3.26 L/kg"}

Field: next compound
Query block: Recorded Vd for Cn1c(=O)n(C2CCC(=O)NC2=O)c2cccc(C#CCO[C@H]3CC[C@H](CN4CCC5(CC4)Cc4cc(NC(=O)c6cnn7cccnc67)c(N6CCC(O)CC6)cc4O5)CC3)c21 (some centres undefined) , please?
Result block: 3.69 L/kg

----------
Assay: Oral bioavailability in male C57BL/6 mouse at 10 mg/kg measured up to 24 hrs by LC-MS/MS analysis
Assay type: ADME, organism-based
Settings: in vivo
Label 0 if bioavailability falls below 50%; label 1 in every other case.

Reference set, count: 3
{"compound": "Cn1c(=O)n(C2CCC(=O)NC2=O)c2cccc(C#CCO[C@H]3CC[C@H](CN4CCC5(CC4)Cc4cc(NC(=O)c6cnn7cc(F)cnc67)c(N6CCC(CO)CC6)cc4O5)CC3)c21 (stereo not given in full)", "qualitativeLabel": 0}
{"compound": "Cn1c(=O)n(C2CCC(=O)NC2=O)c2cccc(C#CCO[C@H]3CC[C@H](CN4CCC5(CC4)Cc4cc(NC(=O)c6cnc7cccnn67)c(N6CCC(CO)CC6)cc4O5)CC3)c21 (stereo not given in full)", "qualitativeLabel": 1}
{"compound": "Cn1c(=O)n(C2CCC(=O)NC2=O)c2cccc(C#CCO[C@H]3CC[C@H](CN4CCC5(CC4)Cc4cc(NC(=O)c6cnn7cccnc67)c(N6CCC(CO)CC6)cc4O5)CC3)c21 (stereo not given in full)", "qualitativeLabel": 0}

Query block: Entry Cn1c(=O)n(C2CCC(=O)NC2=O)c2cccc(C#CCO[C@H]3CC[C@H](CN4CCC5(CC4)Cc4cc(NC(=O)c6coc7cccnc67)c(N6CCC(CO)CC6)cc4O5)CC3)c21 (stereo not given in full) : is its bioavailability no less than 50%?
Result block: 0

Query block: Then this compound: Cn1c(=O)n(C2CCC(=O)NC2=O)c2cccc(C#CCO[C@H]3CC[C@H](CN4CCC5(CC4)Cc4cc(NC(=O)c6cnn7cccnc67)c(N6CCC(O)CC6)cc4O5)CC3)c21 (stereo not given in full)
Result block: 1
